Where do these numbers come from? They come from patent US20070077617.

target: fusion protein PRT
Sequence (chain, as listed by the source): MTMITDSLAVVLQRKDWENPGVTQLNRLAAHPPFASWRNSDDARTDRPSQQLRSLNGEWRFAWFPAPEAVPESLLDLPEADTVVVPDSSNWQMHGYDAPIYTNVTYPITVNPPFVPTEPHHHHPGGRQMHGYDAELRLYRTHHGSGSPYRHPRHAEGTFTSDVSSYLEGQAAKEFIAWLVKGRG
PROPERTY: relative cleavage efficiency

Query block: For OmpT protease variant OmpT D97Q (protein) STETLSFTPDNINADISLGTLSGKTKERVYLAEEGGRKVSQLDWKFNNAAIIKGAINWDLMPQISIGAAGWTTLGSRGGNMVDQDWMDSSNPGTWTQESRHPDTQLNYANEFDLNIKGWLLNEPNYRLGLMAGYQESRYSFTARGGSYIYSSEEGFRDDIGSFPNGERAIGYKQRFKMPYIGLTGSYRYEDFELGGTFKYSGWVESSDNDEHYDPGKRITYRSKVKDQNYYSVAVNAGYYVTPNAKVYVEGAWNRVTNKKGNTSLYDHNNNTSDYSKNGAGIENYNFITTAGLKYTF , what is its reported relative cleavage efficiency?
Result block: < 3%
